Value source: ChEMBL document CHEMBL1649165

Kindly state MIC90 for each of the entries shown.
Test system: Aspergillus ochraceus
assay.name: Antimicrobial activity against Aspergillus ochraceus by broth microdilution method
Assay type: functional

# example entries with known answers
CCC(C)n1ncn(-c2ccc(N3CCN(c4ccc(OCC5COC(Cn6cncn6)(c6ccc(Cl)cc6Cl)O5)cc4)CC3)cc2)c1=O (centres undefined): > 8 µg/mL
CC[C@@H]([C@H](C)O)n1ncn(-c2ccc(N3CCN(c4ccc(OC[C@@H]5CO[C@@](Cn6cncn6)(c6ccc(F)cc6F)C5)cc4)CC3)cc2)c1=O: > 8 µg/mL
C[C@@H](c1ncncc1F)[C@](O)(Cn1cncn1)c1ccc(F)cc1F: > 8 µg/mL

Please tell me: MIC90 of "C[C@@H]1[C@H](O)[C@@H](C)/C=C/C=C/C=C/C=C/C=C/C=C/C=C/[C@H](O[C@@H]2O[C@H](C)[C@@H](O)[C@H](N)[C@@H]2O)C[C@@H]2O[C@](O)(C[C@@H](O)C[C@@H](O)[C@H](O)CC[C@@H](O)C[C@@H](O)CC(=O)O[C@H]1C)C[C@H](O)[C@H]2C(=O)O" , system Aspergillus ochraceus?
> 16 µg/mL
